Recorded measurements of cytotoxicity at 10 µM, one per entry
experiment: Toxicity liver stage against HepG2, at 10uM; type: cell-based; parameters: test concentration 10 uM, cell line HepG2-A16-CD81EGFP; conditions: human, HepG2-A16-CD81EGFP cells; read-out: INHIBITION
Response body: numeric value in %, unit text excluded.

Qu. Data request, read-out cytotoxicity at 10 µM, for Cc1ccc(CN(C)C(=O)CN2CCCC2c2cnn(C)c2)cc1 (stereo not drawn)
Ans. -1.6

---

Recorded measurements of cytotoxicity at 10 µM, one per entry
assay: Toxicity liver stage against HepG2, at 10uM; assay type: cell-based; set-up: test concentration 10 uM, cell line HepG2-A16-CD81EGFP; details: human, HepG2-A16-CD81EGFP cells; read-out: INHIBITION
Response body: numeric value in %, unit text excluded.

Worked cases, answers included:
molecule	cytotoxicity at 10 µM / %
CC(=O)N[C@@H]1CN(C(=O)c2csc(C(C)C)n2)C[C@H]1C(C)C	-6.71
O=C(NCC1CCOC1)c1csc(-c2ccco2)n1 (configuration not stated)	-6.49
CN1CCOCC2(CCN(Cc3ccc[nH]3)CC2)C1	0.442

Qu. Data request, read-out cytotoxicity at 10 µM, for c1cnc(NCc2ncn3c2CN(Cc2cccnc2)CCC3)nc1
Ans. -8.81

Qu. Data request, read-out cytotoxicity at 10 µM, for CCc1nccn1C1CCCN(C(=O)c2ccn(-c3ccccc3)n2)C1 (configuration not stated)
Ans. 5.84

Qu. Data request, read-out cytotoxicity at 10 µM, for Cc1cc(NC(=O)NCCc2ccccc2)n(C)n1
Ans. -9.19

Qu. Data request, read-out cytotoxicity at 10 µM, for CCOC(CC)C(=O)NCCC(=O)N1CCN(c2ncccn2)CC1 (configuration not stated)
Ans. -3.91

Qu. Data request, read-out cytotoxicity at 10 µM, for O=C(NCC1CCC2(CCNCC2)O1)C1CC1 (configuration not stated)
Ans. -5.01

---

experiment: Toxicity liver stage against HepG2, at 10uM; assay type: cell-based; design: test concentration 10 uM, cell line HepG2-A16-CD81EGFP; conditions: human, HepG2-A16-CD81EGFP cells; read-out: INHIBITION
Recorded measurements of cytotoxicity at 10 µM, one per entry
Response body: numeric value in %, unit text excluded.

compound	endpoint	reported_result
Cn1cc(CN2CCC3(CC2)COC(COc2ccccn2)C3)cn1 (stereo not given)	cytotoxicity at 10 µM	0.719
Cc1cc(C)n(CC2CCCN2C(=O)c2cccc3c2OCCO3)n1 (stereo not given)	cytotoxicity at 10 µM	-11.8
CCn1cc2c(n1)C(COCC1CC1)CN(C(=O)c1ccco1)C2 (stereo not given)	cytotoxicity at 10 µM	17.6

Qu. Data request, read-out cytotoxicity at 10 µM, for CC[C@H]1CN(C(=O)c2ccc(-n3cnnc3)nc2)CC[C@@]1(C)O
Ans. -11.9

Qu. Data request, read-out cytotoxicity at 10 µM, for Cc1cc(N(C)C)nc(N2CCn3c(C)nnc3C2)n1
Ans. -5.14

Qu. Data request, read-out cytotoxicity at 10 µM, for CCN(CC)CCn1cc(NC2CCN(C(C)(C)C)CC2)cn1
Ans. -6.53

Qu. Data request, read-out cytotoxicity at 10 µM, for CC1CN(C)c2ccccc2CN1C(=O)c1cc(C#N)cn1C (stereo not given)
Ans. 14.6

Qu. Data request, read-out cytotoxicity at 10 µM, for N#Cc1ccc(N2CCC(OCCc3ccccc3)CC2)nc1
Ans. -9.67

Qu. Data request, read-out cytotoxicity at 10 µM, for CN1CCN(CC2CC2)C(=O)c2cnc(N3CCCC3)nc21
Ans. 5.08

Qu. Data request, read-out cytotoxicity at 10 µM, for N#Cc1cccnc1OC1CCN(S(=O)(=O)c2c(F)cccc2F)CC1
Ans. 5.45

Qu. Data request, read-out cytotoxicity at 10 µM, for CN1CCN(Cc2ccoc2)Cc2cccnc21
Ans. 0.899

Qu. Data request, read-out cytotoxicity at 10 µM, for O=C(N1CCCC1)N1CCn2c(nnc2C2CCCN2)C1 (stereo not given)
Ans. 4.12

Qu. Data request, read-out cytotoxicity at 10 µM, for Cc1nnc(CN2CCCC2c2ccc(Cl)c(Cl)c2)o1 (stereo not given)
Ans. -1.7

Qu. Data request, read-out cytotoxicity at 10 µM, for CC(C)c1nsc(N2CCSCC2)n1
Ans. -11.6

---

Recorded measurements of cytotoxicity at 10 µM, one per entry
experiment: Toxicity liver stage against HepG2, at 10uM; format: cell-based; design: test concentration 10 uM, cell line HepG2-A16-CD81EGFP; details: human, HepG2-A16-CD81EGFP cells; read-out: INHIBITION
Response body: numeric value in %, unit text excluded.

compound	cytotoxicity at 10 µM (%)
CN1C(=O)CC(C(=O)O)C12CCN(Cc1ccc(F)c(Cl)c1)CC2 (stereo not given)	0.998
CCC(NS(C)(=O)=O)c1ccccc1OC (stereo not given)	-43.1
COCCC(=O)N1C[C@H]2CN(Cc3cccnc3)C(=O)[C@H]2C1	-0.95

Qu. Data request, read-out cytotoxicity at 10 µM, for CCC1(C)Cc2ccccc2-c2nc(NCCCO)nc(O)c21 (stereo not given)
Ans. 5.42

Qu. Data request, read-out cytotoxicity at 10 µM, for CC(C)(C)C(=O)N1CCN(CCOc2cccc(C#N)c2)CC1
Ans. 3.53

Qu. Data request, read-out cytotoxicity at 10 µM, for Cc1cnn(CC(=O)N2CCCN(c3ncccc3C#N)CC2)c1
Ans. -4.37

Qu. Data request, read-out cytotoxicity at 10 µM, for O=C1CC[C@H]2[C@H](CCN2C(=O)C2CCOCC2)N1Cc1ccncc1
Ans. -2.7

---

Recorded measurements of cytotoxicity at 10 µM, one per entry
test: Toxicity liver stage against HepG2, at 10uM; format: cell-based; set-up: test concentration 10 uM, cell line HepG2-A16-CD81EGFP; settings: human, HepG2-A16-CD81EGFP cells; read-out: INHIBITION
Response body: numeric value in %, unit text excluded.

compound	scale_unit	cytotoxicity at 10 µM
CCCC(=O)N1CCC(Nc2nc(O)cc(-c3ccsc3)n2)CC1	%	5.46
OC(COCc1ccco1)CN1CCC(Cn2cccn2)CC1 (stereo unspecified)	%	-1.73

Qu. Data request, read-out cytotoxicity at 10 µM, for CS(=O)(=O)NC1CCN(Cc2ccc(OCc3ccccn3)cc2)CC1
Ans. 1.63

Qu. Data request, read-out cytotoxicity at 10 µM, for CN(Cc1ccsc1)C(=O)Nc1ccc(S(=O)(=O)N(C)C)cc1
Ans. 2.23

Qu. Data request, read-out cytotoxicity at 10 µM, for Cn1c(C(N)=O)cc2c1CN(C(=O)C1CCCN(C3CCCC3)C1)CC2 (stereo unspecified)
Ans. -47.1

Qu. Data request, read-out cytotoxicity at 10 µM, for COC(=O)C(NC(=O)c1cc(F)cc(F)c1)c1cccnc1 (stereo unspecified)
Ans. -39.1

---

assay: Toxicity liver stage against HepG2, at 10uM; format: cell-based; design: test concentration 10 uM, cell line HepG2-A16-CD81EGFP; settings: human, HepG2-A16-CD81EGFP cells; read-out: INHIBITION
endpoint: cytotoxicity at 10 µM (%)
Response body: numeric value in %, unit text excluded.

compound	cytotoxicity at 10 µM (%)
CC(C)(C)c1cc(NC(=O)CN2CCn3c(nnc3C3CC3)C2)on1	-4.1
CC1c2ncc(Cn3cccn3)n2CCN1Cc1ccc(F)cc1 (stereo not given)	-107

Qu. Data request, read-out cytotoxicity at 10 µM, for NC(=O)CN1CCC(c2noc3cc(F)ccc23)CC1
Ans. 5.47

Qu. Data request, read-out cytotoxicity at 10 µM, for CSCc1nc(CNC(=O)C2CCCN(C(=O)N(C)C)C2)cs1 (stereo not given)
Ans. -3.99

Qu. Data request, read-out cytotoxicity at 10 µM, for Cc1nc(C2CCCN2C(=O)c2ccc(N(C)C)nn2)no1 (stereo not given)
Ans. -12.9

Qu. Data request, read-out cytotoxicity at 10 µM, for COC(=O)c1cccnc1N1CCC(Oc2cccc(F)c2)CC1
Ans. 3.31

Qu. Data request, read-out cytotoxicity at 10 µM, for NCc1n[nH]c(-c2ccc(Br)cc2)n1
Ans. 19.7

Qu. Data request, read-out cytotoxicity at 10 µM, for Cc1cc(C[S+]([O-])Cc2ccccc2F)on1 (stereo not given)
Ans. -8.37

Qu. Data request, read-out cytotoxicity at 10 µM, for CN1C(=O)C2(CCN(S(=O)(=O)C3CC3)CC2)c2ccccc21
Ans. -5.27

Qu. Data request, read-out cytotoxicity at 10 µM, for Cn1ccc(C(=O)NCc2ccc(N3CCCCCC3)nc2)cc1=O
Ans. -3.18

---

test: Toxicity liver stage against HepG2, at 10uM; format: cell-based; set-up: test concentration 10 uM, cell line HepG2-A16-CD81EGFP; conditions: human, HepG2-A16-CD81EGFP cells; read-out: INHIBITION
Recorded measurements of cytotoxicity at 10 µM, one per entry
Response body: numeric value in %, unit text excluded.

Worked cases, answers included:
compound	cytotoxicity at 10 µM (%)
CCc1noc(CN(CC)Cc2cc3ccc(F)cc3[nH]c2=O)n1	2.24
CCOc1ccc(NC(C)c2nnnn2-c2ccccc2)cc1CO (configuration not stated)	-5
Cc1cn2c(n1)CCC(NC(=O)CCn1cncn1)C2 (configuration not stated)	-5.72
O=C(c1ccco1)N1CCC2(CC1)C(=O)NCCN2CC1CC1	4.3
COc1cccc(C2SCC(=O)Nc3ccsc32)c1 (configuration not stated)	2.77
Cc1noc(C)c1CNC(=O)N1CCN(CC2CC2)CC1	-6.48

Qu. Data request, read-out cytotoxicity at 10 µM, for CCc1noc(CNc2ccc(CC(=O)N3CCSCC3)cc2)n1
Ans. 3.73

Qu. Data request, read-out cytotoxicity at 10 µM, for CS(=O)(=O)NC1CC(=O)N(c2ccccc2Cl)C1 (configuration not stated)
Ans. -0.585
